B1: CPEB3 Ribozyme (parent)
chain: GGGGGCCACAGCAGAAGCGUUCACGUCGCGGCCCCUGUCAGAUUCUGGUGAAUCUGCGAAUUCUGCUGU

- Variants of: B1
- PROTOCOL DESCRIPTION: self-cleavage, relative activity (ratio to wild type); higher = more cleavage; co-transcriptional
MEASUREMENT NAME: self-cleavage

Recorded self-cleavage of GGGGGCCACAGCAGAAGGGUUCACGUCGCGGCCCCUGUCAGAUUCUGGUGAAUCUGCGAAUUCUGCUAU [C18G G68A] , please.
0.403

Fill in: self-cleavage of GGGGGCUACAGCAGAAGCGUUCACGUCGCGGCCCCUGUCAGAUUGUGGUGAAUCUGCGAAUUCUGCUGU [C7U C45G] is ___
1.02

Could you tell me which self-cleavage is on file for GGCGGCCACAGCAGAAGCGUUCACGUCGCGGCCCCUGUGAGAUUCUGGUGAAUCUGCGAAUUCUGCUGU [G3C C39G] ?
0.0769

Returns the measured self-cleavage for the input variant. Input: GGGGGCCACAGCAAAAGCGUUCCCGUCGCGGCCCCUGUCAGAUUCUGGUGAAUCUGCGAAUUCUGCUGU [G14A A23C]
0.582

Give the measured self-cleavage of GGGGACCACAGCAGAAGCGUUCACGUCGCGGCCCCUGUCAGAUUCUGGUAAAUCUGCGAAUUCUGCUGU [G5A G50A] .
0.941

For the variant shown here, GGGGGCCACAGCAGAAGCGUUCACGUCGCGGCCCCUGUCAGAUUCUGGUGAAUAUUCGAAUUCUGCUGU [C54A G56U] , give the reported self-cleavage.
0.471
